Hello, the source for this data is patent US11414404B2, in case you need it.

# system_under_test: BCRP (Homo sapiens (Human))
# Sequence (Q9UNQ0 whole entry, species assumed): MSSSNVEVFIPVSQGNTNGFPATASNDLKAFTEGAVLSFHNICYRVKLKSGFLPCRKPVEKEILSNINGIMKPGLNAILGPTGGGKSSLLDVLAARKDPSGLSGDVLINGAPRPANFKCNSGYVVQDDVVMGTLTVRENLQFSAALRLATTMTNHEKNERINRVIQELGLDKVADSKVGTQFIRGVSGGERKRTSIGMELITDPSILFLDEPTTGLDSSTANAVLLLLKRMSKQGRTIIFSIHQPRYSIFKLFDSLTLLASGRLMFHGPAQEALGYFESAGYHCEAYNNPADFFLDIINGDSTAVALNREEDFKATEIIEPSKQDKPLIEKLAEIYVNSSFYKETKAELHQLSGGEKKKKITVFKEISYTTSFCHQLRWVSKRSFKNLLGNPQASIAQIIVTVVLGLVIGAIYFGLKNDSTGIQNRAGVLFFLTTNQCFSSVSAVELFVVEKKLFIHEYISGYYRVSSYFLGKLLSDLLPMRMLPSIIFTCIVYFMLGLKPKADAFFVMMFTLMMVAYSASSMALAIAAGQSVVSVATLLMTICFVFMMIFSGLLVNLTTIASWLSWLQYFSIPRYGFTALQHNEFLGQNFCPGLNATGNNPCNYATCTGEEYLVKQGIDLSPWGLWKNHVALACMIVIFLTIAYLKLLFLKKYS
# assay_details: BCRP MDCKII permeability assay: efflux ratio
# experimental_setup: dog
Structures can show the parent of a compound that is named as a salt.
property_label: efflux ratio at 2 h, 1 µM

Past entries and their recorded results:
# compound, property_label, reported_measurement
measured = [
    ("CCCS(=O)(=O)Nc1ccc(F)c(Sc2ccc3ncn(C)c(=O)c3c2C)c1Cl", "efflux ratio at 2 h, 1 µM", 0.9),
    ("Cc1c(Nc2c(F)ccc(NS(=O)(=O)N3CCCC3)c2Cl)ccc2ncn(C)c(=O)c12", "efflux ratio at 2 h, 1 µM", 0.77),
    ("Cc1c(Oc2c(F)ccc(NS(=O)(=O)CCCF)c2Cl)ccc2ncn(C)c(=O)c12", "efflux ratio at 2 h, 1 µM", 1.8),
    ("CCCS(=O)(=O)Nc1ccc(F)c(Nc2ccc3ncn(CC(F)(F)F)c(=O)c3c2C)c1Cl", "efflux ratio at 2 h, 1 µM", 1.08),
    ("Cc1c(Nc2c(F)ccc(NS(=O)(=O)c3ccccc3)c2Cl)ccc2ncn(C)c(=O)c12", "efflux ratio at 2 h, 1 µM", 0.97),
]

(I) CCCS(=O)(=O)Nc1ccc(F)c(Nc2ccc3ncn(C4CCCC4)c(=O)c3c2C)c1Cl [Example 39, trifluoroacetate]
(II) Cn1cnc2ccc(Nc3c(F)ccc(NS(=O)(=O)CCCF)c3Cl)cc2c1=O [WO 2012/118492 Example 34, reference compound]
### Prompt Just curious, which one has the larger efflux ratio at 2 h, 1 µM reading, I or II ? # respond with the chosen item's label
### Response II
